The measurements presented in this section are drawn from ChEMBL document CHEMBL1938231.

Measurement target: Tyrosine-protein kinase JAK3 (Homo sapiens, UniProt P52333)
Sequence (P52333 whole entry): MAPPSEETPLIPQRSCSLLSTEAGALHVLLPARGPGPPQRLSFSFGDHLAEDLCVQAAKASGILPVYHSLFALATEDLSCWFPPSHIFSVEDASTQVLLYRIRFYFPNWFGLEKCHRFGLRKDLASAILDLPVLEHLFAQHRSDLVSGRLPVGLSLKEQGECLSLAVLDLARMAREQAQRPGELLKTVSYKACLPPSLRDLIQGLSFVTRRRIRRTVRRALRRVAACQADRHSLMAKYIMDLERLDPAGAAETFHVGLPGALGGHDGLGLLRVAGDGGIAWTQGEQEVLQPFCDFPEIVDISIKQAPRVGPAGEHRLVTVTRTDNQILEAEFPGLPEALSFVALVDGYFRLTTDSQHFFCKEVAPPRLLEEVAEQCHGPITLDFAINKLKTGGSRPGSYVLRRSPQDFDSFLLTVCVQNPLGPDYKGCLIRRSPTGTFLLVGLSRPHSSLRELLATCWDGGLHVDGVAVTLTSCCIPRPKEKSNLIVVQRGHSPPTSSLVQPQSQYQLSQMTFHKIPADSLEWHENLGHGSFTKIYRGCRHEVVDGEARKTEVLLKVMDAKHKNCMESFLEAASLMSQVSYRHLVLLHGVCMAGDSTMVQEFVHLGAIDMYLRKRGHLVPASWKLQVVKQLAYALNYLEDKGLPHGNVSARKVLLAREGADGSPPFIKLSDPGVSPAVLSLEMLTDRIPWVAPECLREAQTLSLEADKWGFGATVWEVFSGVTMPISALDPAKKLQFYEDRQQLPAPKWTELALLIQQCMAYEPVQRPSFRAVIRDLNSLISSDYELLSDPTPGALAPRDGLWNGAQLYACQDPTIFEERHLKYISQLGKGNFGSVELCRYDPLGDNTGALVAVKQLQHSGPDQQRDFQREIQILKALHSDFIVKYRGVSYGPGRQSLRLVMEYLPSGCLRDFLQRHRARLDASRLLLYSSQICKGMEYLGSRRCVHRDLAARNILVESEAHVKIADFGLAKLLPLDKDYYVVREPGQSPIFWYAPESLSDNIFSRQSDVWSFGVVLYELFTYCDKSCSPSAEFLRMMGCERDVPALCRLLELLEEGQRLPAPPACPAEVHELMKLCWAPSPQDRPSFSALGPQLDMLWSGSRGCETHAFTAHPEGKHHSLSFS
Format: cell-based, Sf9
Experimental readout: log10 of IC50 (log10 of the value in nM)
Parameter value (number): base-10 log of IC50 in nM.

Input: Give recorded log10 of IC50 with Tyrosine-protein kinase JAK3 (Homo sapiens, UniProt P52333) for the following compound: CCNC(=O)c1cnc(N)c2cc(-c3ccc(N4CCOCC4)cc3)sc12
Output: 2.99

Input: Also need CNC(=O)c1cnc(N)c2cc(-c3ccc(C(C)(C)C#N)cc3)sc12 , thanks.
Output: 2.07

Input: What would you report for Nc1ncc(C(=O)Nc2ccccc2)c2sc(-c3ccc(N4CCOCC4)cc3)cc12 ?
Output: 3.46

Input: Then what about the compound CN(C)C(=O)c1cnc(N)c2cc(-c3ccc(N4CCOCC4)cc3)sc12 ?
Output: 3.22

Input: CC(C)(C)NS(=O)(=O)c1ccc(-c2cc3c(N)ncc(C(=O)NCCO)c3s2)cc1 , same question.
Output: 2.64

Input: Follow-up item: CC(C)(C)NS(=O)(=O)c1ccc(-c2cc3c(N)ncc(C(=O)NCCN4CCOCC4)c3s2)cc1
Output: 2.98

Input: Can you handle CNC(=O)c1cnc(N)c2cc(-c3ccc(S(=O)(=O)NC(C)(C)C)cc3)sc12 next?
Output: 2.49

Input: Query CNC(=O)c1cnc(N)c2cc(-c3ccc(N4CCOCC4)cc3)sc12 next
Output: 3.13

Input: Thanks! And CNC(=O)c1cnc(N)c2cc(-c3ccccc3)sc12 ?
Output: 2.88

Input: Also, NC(=O)c1cnc(N)c2cc(-c3ccc(N4CCOCC4)cc3)sc12 please.
Output: 1.26
